Origin of values: ChEMBL document CHEMBL3217532

So I've got a bunch of compounds here, and I need their MIC90 values.
Tested on: Pseudomonas aeruginosa
Assay protocol: Antimicrobial activity against Pseudomonas aeruginosa 1612-09
Type: functional
Quick note: give the figure in µg/mL, leave out the unit.

stdin: Query for Pseudomonas aeruginosa: what MIC90 does the record show for C[C@@H](O)[C@H]1C(=O)N2C(C(=O)O)=C(S[C@@H]3CN[C@H](C(=O)N(C)C)C3)[C@H](C)[C@H]12 ?
stdout: 16

stdin: I'm curious: which MIC90 was measured for C[C@H]1[C@H](NC(=O)/C(=N\OC(C)(C)C(=O)O)c2csc(N)n2)C(=O)N1C(=O)NS(=O)(=O)n1nc(-c2cc(=O)c(O)c[nH]2)n(C)c1=O tested on Pseudomonas aeruginosa?
stdout: 1

stdin: Given the entry C[C@H]1[C@H](NC(=O)/C(=N\OC(C)(C)C(=O)O)c2csc(N)n2)C(=O)N1C(=O)NS(=O)(=O)n1nc(-c2cc(=O)c(O)c[nH]2)n(C[C@@H](O)CO)c1=O , what MIC90 was observed with Pseudomonas aeruginosa?
stdout: 0.25

stdin: Form field - read-out: MIC90; system: Pseudomonas aeruginosa; submitted item: CC(C)(O/N=C(\C(=O)N[C@H]1CN(C(=O)NS(=O)(=O)n2nc(-c3cc(=O)c(O)c[nH]3)n(C[C@@H](O)CO)c2=O)C1=O)c1csc(N)n1)C(=O)O
stdout: 0.5

stdin: Checklist item: MIC90 tested on Pseudomonas aeruginosa, entry C[C@H](O)Cn1c(-c2cc(=O)c(O)c[nH]2)nn(S(=O)(=O)NC(=O)N2C(=O)[C@@H](NC(=O)/C(=N\OC(C)(C)C(=O)O)c3csc(N)n3)[C@@H]2C)c1=O , value?
stdout: 0.5

stdin: Test system Pseudomonas aeruginosa; read-out MIC90; what value for C[C@H]1[C@H](NC(=O)/C(=N\OC(C)(C)C(=O)O)c2csc(N)n2)C(=O)N1C(=O)NS(=O)(=O)n1nc(-c2cc(=O)c(O)c[nH]2)n(CC(N)=O)c1=O ?
stdout: 0.25

stdin: API: value(readout=MIC90, system=Pseudomonas aeruginosa) for record CC1(C)[C@H](NC(=O)/C(=N\OCc2cc(=O)c(O)cn2O)c2csc(N)n2)C(=O)N1OS(=O)(=O)O
stdout: 16
